B1: TFE3 (parent)
chain: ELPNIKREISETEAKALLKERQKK

variants of: B1; assay: protein stability index of a GFP-peptide fusion (GPS, HEK-293T) (PSI 1-6); higher = more stable; conditions: c terminus: a fixed tail appended;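 note: lentivirally expressed fusions sorted by FACS into six bins by GFP to DsRed ratio, PSI derived from sequencing read proportions per bin multiplied by bin number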
Classify by measured protein stability index: 1 (yes) if it is equal to or exceeds 3, 0 (no) if it is smaller.

Reference set, count: 2
Challenge: Please tell me: is the variant "ELPNIVREISETEAKALLKERQKK" at or over 3 in terms of protein stability index?
Response given: 0 (no)

Challenge: Record "ELPNIKREISATEAKALLKERQKK" ; criterion: protein stability index no lower than 3. Met?
Response given: 0 (no)

***
Challenge: Decide: protein stability index of "ELPNIKREISETEAKALLKERQKI" >= 3?
Response given: 0 (no)

Challenge: Check the entry "ELPNIKREISETEAKALRKERQKK" : does protein stability index equal or exceed 3?
Response given: 0 (no)

Challenge: Assess whether reported protein stability index for "ELPNIKREISETEAKALLKERQKG" sits at 3 or higher.
Response given: 0 (no)

Challenge: Form field: protein stability index at least 3? Entry: "ELPNIKREISETECKALLKERQKK"
Response given: 0 (no)

Challenge: Is protein stability index for "ELPNIKREISENEAKALLKERQKK" at or above 3?
Response given: 1 (yes)
